target: Pyruvate kinase (Leishmania mexicana) (UniProt Q27686); assay: qHTS Validation Assay for Inhibitors of Leishmania Mexicana Pyruvate Kinase (AID 945); conditions: purified L. mexicana pyruvate kinase, enzyme activity, E451W mutant enzyme; series mostly up to 57.5 µM
Calls of active or inactive are those of the source. Calls follow the shape of the dose curve; as a rule, active = well fitted inhibition curve with a large enough effect; inconclusive = small, poorly fitted or top-dose-only effect; inactive = no such curve, though single readings can be large or run the other way.
The reply should name one outcome from active, inactive

Below, 5 molecules whose answers are already recorded.
# Chemical structure, Label
data = [
    ("Oc1ccc(-c2nc(-c3ccc(F)cc3)c(-c3ccncc3)[nH]2)cc1", "inactive"),
    ("Cc1cccc(C#Cc2ccccc2)n1", "active"),
    ("COc1ccccc1N1CCN(CCN(C(=O)C2CCCCC2)c2ccccn2)CC1", "inactive"),
    ("CC1(C)C(=O)N(CCN2CCC(C(=O)c3ccc(F)cc3)CC2)c2ccccc21", "inactive"),
    ("O=C(O)c1cccnc1Nc1cccc(C(F)(F)F)c1", "inactive"),
]

Hi, do you know how CC1(C)NC(=O)N(c2ccc([N+](=O)[O-])c(C(F)(F)F)c2)C1=O came out in this test?
inactive

Hi, do you know how C[C@H](Cc1ccc(O)c(O)c1)[C@@H](C)Cc1ccc(O)c(O)c1 came out in this test?
inactive

Hi, do you know how Cc1cc(O)c2c(c1)C(=O)c1cc(O)cc(O)c1C2=O came out in this test?
inactive

###

test: qHTS of pediatric cancer cell lines to identify multiple opportunities for drug repurposing: Confirmatory screen for LAN-5 cells (AID 1347113); settings: LAN-5 neuroblastoma cell viability; series mostly up to 45.9 µM; also: nearly all actives have a fitted effect of over 65% in size
Inconclusive results are not listed. Calls of active or inactive are those of the source. The call rests on the fitted dose curve; in most records, active means well fitted cell-killing curve with a large enough effect; inconclusive means small, poorly fitted or top-dose-only effect, or effect the other way; inactive means no such curve, though single readings can be large or run the other way.
The reply should name one outcome from active, inactive

Below, 3 compounds whose answers are already recorded.
# Compound, Label
records = [
    ("Cc1cc(C2CCCCC2)n(O)c(=O)c1", "active"),
    ("Nc1ccn([C@@H]2O[C@H](CO)[C@@H](O)C2O)c(=O)n1 (stereo not given in full)", "inactive"),
    ("CCOc1cc(CC(=O)N[C@@H](CC(C)C)c2ccccc2N2CCCCC2)ccc1C(=O)O", "inactive"),
]

Hi, do you know how CC1(C)C(=O)N(CCN2CCC(C(=O)c3ccc(F)cc3)CC2)c2ccccc21 came out in this test?
inactive

Hi, do you know how Clc1ccc(C(Cn2ccnc2)OCc2ccsc2Cl)c(Cl)c1 (stereo not given) came out in this test?
active

###

assay: qHTS of pediatric cancer cell lines to identify multiple opportunities for drug repurposing: Confirmatory screen for DAOY cells (AID 1347114); conditions: DAOY medulloblastoma cells viability, cytotoxicity qHTS; series mostly up to 45.9 µM; also: nearly all actives have a fitted effect of over 65% in size; also: potency is read from the fitted curve at half-maximal effect
Results filed as inconclusive are left out. The source made the active and inactive calls. Calls come from the whole dose curve; as a rule, active = well fitted cell-killing curve with a large enough effect; inconclusive = small, poorly fitted or top-dose-only effect; inactive = no such curve, though single readings can be large or run the other way.
Readout name: Potency

Recorded results for 4 molecules are shown here.
# Molecule, Readout name, Result
rows = [
    ("CCN(CCO)CCCC(C)Nc1ccnc2cc(Cl)ccc12 (stereo unspecified)", "Potency", "inactive"),
    ("CCCOc1ccc2nc(NC(=O)OC)[nH]c2c1", "Potency", "0.928 µM (active)"),
    ("CCN(CC)C(=S)SSC(=S)N(CC)CC", "Potency", "9.27 µM (active)"),
    ("Cc1ccc(NC(=O)c2ccc(CN3CCN(C)CC3)cc2)cc1Nc1nccc(-c2cccnc2)n1", "Potency", "16.5 µM (active)"),
]

For every item below, please supply its Potency.
1. Nc1ncn([C@H]2C[C@H](O)[C@@H](CO)O2)c(=O)n1
2. CCN(CC)CCOc1ccc(Nc2ncc3cc(-c4c(Cl)cccc4Cl)c(=O)n(C)c3n2)cc1

1. inactive
2. 1.65 µM (active)

###

System: CP325
Experiment: qHTS profiling for inhibitors of Plasmodium falciparum proliferation (AID 504749); also: nearly all actives have a fitted effect of over 60% in size
Conditions: P. falciparum in erythrocytes, SYBR Green DNA, 72 h; series mostly up to 28.7 µM
Experimental: NIH National Institute of Allergy and Infectious Diseases [NIAID] NIH Chemical Genomics Center [NCGC] […] Because mature erythrocytes lack DNA, only Plasmodium-derived DNA is detected. NCGC Assay Protocol Summary: The SYBR Green viability assay was adapted from a method described previously (Plouffe et al., 2008). […] The following morning, fluorescence intensity at 485(14) nm excitation and 535(25) nm emission wavelengths was measured on an EnVision (Perkin Elmer) plate reader. […]
Results filed as inconclusive are left out. Active and inactive are the calls of the source. Calls come from the whole dose curve; as a rule, active = well fitted inhibition curve with a large enough effect; inconclusive = small, poorly fitted or top-dose-only effect; inactive = flat fitted curve, though single readings scatter.
The reply should name one outcome from y (active), n (inactive)

Hi, do you know how O=C(O)c1cccc(-c2noc(-c3ccccc3F)n2)c1 came out in this test?
n

Hi, do you know how CN(C)C(=O)COC(=O)Cc1ccc(OC(=O)c2ccc(N=C(N)N)cc2)cc1 came out in this test?
n

Hi, do you know how CN(C)c1ccc2nc3ccc(=[N+](C)C)cc-3sc2c1 came out in this test?
y

###

target: Retinoic acid receptor RXR-alpha (Homo sapiens) (UniProt P19793); assay: qHTS assay for small molecule antagonists of retinoid X receptor alpha signaling (AID 588546); conditions: HEK293T RXRa-UAS-bla, beta-lactamase ratio, antagonist mode;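 also: cells stimulated with 9-cis-retinoic acid as agonist; % is scaled to controls: 0 for no effect and ±100 for the full control effect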
Sequence (P19793 whole entry, looked up): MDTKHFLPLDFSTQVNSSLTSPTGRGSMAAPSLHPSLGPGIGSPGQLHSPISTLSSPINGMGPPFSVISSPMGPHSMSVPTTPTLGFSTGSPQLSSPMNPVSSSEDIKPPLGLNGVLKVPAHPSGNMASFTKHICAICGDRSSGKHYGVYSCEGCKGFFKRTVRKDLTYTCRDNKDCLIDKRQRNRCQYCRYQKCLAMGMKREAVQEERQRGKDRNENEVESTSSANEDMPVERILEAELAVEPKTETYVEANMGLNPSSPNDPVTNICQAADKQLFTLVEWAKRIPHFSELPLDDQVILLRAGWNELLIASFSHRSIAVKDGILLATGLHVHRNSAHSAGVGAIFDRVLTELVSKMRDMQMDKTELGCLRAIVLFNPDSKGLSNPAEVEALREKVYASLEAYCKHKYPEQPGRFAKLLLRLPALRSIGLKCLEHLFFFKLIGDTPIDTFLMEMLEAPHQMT
Records with an inconclusive call do not appear. The source made the active and inactive calls. Calls come from the whole dose curve; as a rule, active = well fitted inhibition curve with a large enough effect in the signal ratio, with a control signal flat (not every such curve was filed as active); inconclusive = small, poorly fitted or top-dose-only effect, or effect the other way, or a change in a side signal; inactive = no such curve, though single readings can be large or run the other way; the % refers to the signal ratio.
Readout name: max response

Recorded results for 5 compounds are shown here.
# Compound, Measured target, max response
measured = [
    ("Nc1nc(Cl)nc2c1ncn2[C@H]1C[C@H](O)[C@@H](CO)O1", "Retinoic acid receptor RXR-alpha (Homo sapiens) (UniProt P19793)", "-2.35% (inactive)"),
    ("Nc1ccc(S(N)(=O)=O)cc1", "Retinoic acid receptor RXR-alpha (Homo sapiens) (UniProt P19793)", "9.55% (inactive)"),
    ("CN(C)c1ccc2nc3ccc(=[N+](C)C)cc-3sc2c1", "Retinoic acid receptor RXR-alpha (Homo sapiens) (UniProt P19793)", "-3.23% (inactive)"),
    ("CNC[C@H](O)c1ccc(O)c(O)c1", "Retinoic acid receptor RXR-alpha (Homo sapiens) (UniProt P19793)", "-4.11% (inactive)"),
    ("CCCCC(CC)COC(=O)C(C#N)=C(c1ccccc1)c1ccccc1 (stereo unspecified)", "Retinoic acid receptor RXR-alpha (Homo sapiens) (UniProt P19793)", "-7.69% (inactive)"),
]

Consider now this further compound.
// query max response value for entry COc1cc(OC)c(C(=O)CCCN2CCCC2)c(OC)c1
-23.6% (inactive)

###

test system: HeLa; assay: Primary qHTS to identify gynecologic anti-cancer compounds using libraries of approved drugs and bioactive compounds (AID 1345084); settings: Gynecologic cancer cell panel viability, ATPlite luminescence, 48 h; series mostly up to 57.5 µM; also: nearly all actives have a fitted effect of over 55% in size; also: potency is read from the fitted curve at half-maximal effect
Inconclusive results are not listed. Calls of active or inactive are those of the source. Calls come from the whole dose curve; as a rule, active = well fitted cell-killing curve with a large enough effect; inconclusive = small, poorly fitted or top-dose-only effect, or effect the other way; inactive = flat fitted curve, though single readings scatter.
Readout name: Potency

Recorded results for 5 compounds are shown here.
# Compound, Potency
records = [
    ("CCCOc1ccc2nc(NC(=O)OC)[nH]c2c1", "282 nM (active)"),
    ("CC1(C)NC(=O)N(c2ccc([N+](=O)[O-])c(C(F)(F)F)c2)C1=O", "inactive"),
    ("COC(=O)C1=C(C)NC(C)=C(C(=O)OC(C)C)C1c1cccc2nonc12 (stereo unspecified)", "inactive"),
    ("Nc1ccc(S(N)(=O)=O)cc1", "inactive"),
    ("Cn1c(NCCN(CCO)CCCc2ccc([N+](=O)[O-])cc2)cc(=O)n(C)c1=O", "inactive"),
]

Consider now this further compound.
// query Potency value for entry CN1CCC(=C2c3ccccc3CCc3sccc32)CC1
inactive

###

For each entry below, report its activity, negative = cell killing value.
test: Drug repurposing screens with cells derived from glioblastoma tumor samples (AID 1345199); conditions: GBM patient neurospheres viability, ATP luminescence, 48 h; at 45.9 µM (top of the series); tumour line B; also: % is scaled to controls: 0 for no effect and ±100 for the full control effect; nearly all actives have a fitted effect of over 40% in size
Results filed as inconclusive are left out. Non-standard residues stand in square brackets, D forms with d. Residues, ends and D or L forms follow the SMILES beside them. *: point of attachment. Sta = CC(C)C[C@H](N)[C@@H](O)CC(=O)O; Isovaleryl = CC(C)CC(=O)*
Give bare numbers, in %.

# Compound, Result
data = [
    ("O=C(CS(=O)Cc1ccco1)NCC=CCOc1cc(CN2CCCCC2)ccn1 (stereo unspecified)", -14.1),
    ("Nc1cccc2c1CN(C1CCC(=O)NC1=O)C2=O (stereo unspecified)", -18.6),
    ("N=C(N)c1ccc2cc(OC(=O)c3ccc(N=C(N)N)cc3)ccc2c1", -0.17),
]

For every item below, please supply its activity, negative = cell killing.
1. C[Se]CCC(N)C(=O)O (stereo unspecified)
2. O=C(O)c1cc(=O)c2c(OCC(O)COc3cccc4oc(C(=O)O)cc(=O)c34)cccc2o1
3. O=C(NC(Cc1cc(=O)[nH]c2ccccc12)C(=O)O)c1ccc(Cl)cc1 (stereo unspecified)

-7.06
-3.77
-5.33

For every item below, please supply its activity, negative = cell killing.
1. CCOC(=O)c1c(C)n(C)c2ccc(O)cc12
2. Nc1cc(C(Cl)=C(Cl)Cl)c(S(N)(=O)=O)cc1S(N)(=O)=O
3. CN(C)CCc1c[nH]c2ccc(Cn3cncn3)cc12

1. -14.1
2. -15.5
3. -9.89

For every item below, please supply its activity, negative = cell killing.
1. CC(C)CC(=O)N[C@H](C(=O)N[C@H](C(=O)N[C@@H](CC(C)C)[C@@H](O)CC(=O)N[C@@H](C)C(=O)N[C@@H](CC(C)C)[C@@H](O)CC(=O)O)C(C)C)C(C)C (Isovaleryl-VV[Sta]A[Sta]-OH)
2. Cc1ncc([N+](=O)[O-])n1CC(C)O (stereo unspecified)
3. CC(C)[C@H](N)C(=O)OCCOCn1cnc2c(=O)[nH]c(N)nc21
4. C[C@]12CCC(=O)C=C1CC[C@@H]1[C@H]2[C@@H](O)C[C@@]2(C)[C@H]1CC[C@]2(O)C(=O)CO
5. CCCCCCCCCCCCCCCCCCCCCCO
6. Cc1ccc(Nc2nccc(N(C)c3ccc4c(C)n(C)nc4c3)n2)cc1S(N)(=O)=O

1: -11.5; 2: -7.1; 3: -5.53; 4: -8.77; 5: -4.68; 6: -23.7

For every item below, please supply its activity, negative = cell killing.
1. c1ccc2[nH]c(-c3cscn3)nc2c1
2. CCOC(=O)C1=C[C@@H](OC(CC)CC)[C@H](NC(C)=O)[C@@H](N)C1
3. CCC(C)(Oc1ccc(C2(c3ccc(OC(C)(CC)C(=O)O)cc3)CCCCC2)cc1)C(=O)O (stereo unspecified)
4. CCCc1cc(=O)[nH]c(=S)[nH]1
5. COc1c2occc2cc2ccc(=O)oc12
6. CCC1=C(C)CN(C(=O)NCCc2ccc(S(=O)(=O)NC(=O)NC3CCC(C)CC3)cc2)C1=O (stereo unspecified)

1: -26.3; 2: -10.4; 3: -15.2; 4: -8.42; 5: -22.6; 6: 4.42

The values you see were collected from PubChem BioAssay (NCATS).
